Data provenance is paper PMC3873856.

# tgt: T1, Nrp1-b1b2 (residue 274 to 586) (UniProt O14786 274-586)
# T1 sequence (looked up): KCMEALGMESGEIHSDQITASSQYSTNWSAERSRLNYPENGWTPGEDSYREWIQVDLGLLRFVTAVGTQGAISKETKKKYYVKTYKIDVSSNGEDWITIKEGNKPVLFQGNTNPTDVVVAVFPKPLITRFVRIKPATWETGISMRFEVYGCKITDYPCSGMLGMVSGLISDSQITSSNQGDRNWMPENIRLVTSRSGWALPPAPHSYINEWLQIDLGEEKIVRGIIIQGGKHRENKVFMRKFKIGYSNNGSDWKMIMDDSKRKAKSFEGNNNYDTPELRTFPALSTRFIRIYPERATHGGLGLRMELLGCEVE
# experiment_description: plate-based competition assay with alkaline phosphatase fused ligand
pIC50: −log10 of the molar value. Where no end group is shown, it is not given here.
Let's look at some binders and their measured pIC50.

[
  {
    "binder": "Sema3A.3, furin processed variant of the Sema3A C-terminal domain (peptide) NTMDEFCEQVWKRDRKQRRQRPGHTPGNSNKWKHLQENKKGRNRRTHEFERAPR",
    "pIC50": 7.57
  },
  {
    "binder": "GLIHQYSQGYWRHVPPSPREAPGAPRSPEPDQKKPRNRR [monomeric C-furSema^Mon]",
    "pIC50": 5.89
  },
  {
    "binder": "NTMDEFCEQVWKRDRKQRRQRPGHTPGNSNKWKHLQENKKGRNRR [Sema3A.2, furin processed variant of the Sema3A C-terminal domain]",
    "pIC50": 7.35
  },
  {
    "binder": "NTMDEFCEQVWKRDRKQR [Sema3A.1, shortest furin processed variant of the Sema3A C-terminal domain]",
    "pIC50": 5.96
  },
  {
    "binder": "CQGYWRHVPPSPREAPGAPRSPEPDQKKPRNRR [ΔN-C-furSema]",
    "pIC50": 6.95
  },
  {
    "binder": "GLIHQYCQGYWRHVPPSPREAPGAPRSPEPDQKKPRNRA (also: homodimer, intermolecular disulfide Cys7-Cys7) [C-furSema R779A]",
    "pIC50": 5.35
  }
]
